Reference source: the supplement of paper PMC6757056

Consider the following variants; for each one, report its FACS-Seq fitted mean (log10).
B1: library; a variant is named by its letters at N, in order (parent)
chain: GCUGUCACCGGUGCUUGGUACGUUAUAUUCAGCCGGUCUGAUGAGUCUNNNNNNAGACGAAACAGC

Variants of: B1
Assay info: FACS-Seq fitted mean relative fluorescence mCherry/BFP without ligand (log10 relative fluorescence); HEK293T overexpressing SLC46A1; higher = higher reporter protein expression
Condition details: without (6R,S)-folinic acid; ligand present: no
Respond numerically, and do not add a unit to the figure.

Consider the variant "AACUUA" . State its measured FACS-Seq fitted mean (log10). 0.0993

Return the recorded FACS-Seq fitted mean (log10) value; entry: "UGACGC" 0.28

Give a short answer stating reported FACS-Seq fitted mean (log10) for "UACACG" . 0.231

Input "GAAGUG" , output reported FACS-Seq fitted mean (log10). 0.327

Note FACS-Seq fitted mean (log10) for the variant shown: "AACCGG" 0.00166

Identify measured FACS-Seq fitted mean (log10) associated with "UCAACC" 0.654

Note down FACS-Seq fitted mean (log10) recorded for "CUGGGA" 0.446

// Input: "CUGGCU" . Output its FACS-Seq fitted mean (log10) only. 0.556

Please report the measured FACS-Seq fitted mean (log10) for "GUGCCG" 0.617

Identify FACS-Seq fitted mean (log10) associated with the variant "CCUAAU" 0.239

Return value of FACS-Seq fitted mean (log10) for input "UACACA" , no commentary. 0.187

Report FACS-Seq fitted mean (log10), nothing else, for this variant: "UUGGAA" 0.241

Complete the entry with FACS-Seq fitted mean (log10) for "UGUGGA" -0.112

Answer with the recorded FACS-Seq fitted mean (log10) of "GUGUAA" only. 0.21

Tell us which FACS-Seq fitted mean (log10) value is on record for "CAUUAC" 0.716

In one line, give reported FACS-Seq fitted mean (log10) of the entry "CAAGAA" . 0.425

For the variant "GUCUGC" , give its reported FACS-Seq fitted mean (log10). 0.325

Please look at this variant and report its FACS-Seq fitted mean (log10): "AAGAGU" 0.413

Give the measured FACS-Seq fitted mean (log10) for "AUUCAG" 0.281

Identify measured FACS-Seq fitted mean (log10) associated with "CAAGGA" 0.62

Retrieve FACS-Seq fitted mean (log10) measured for "UGAUAA" and print it. 0.48

Give reported FACS-Seq fitted mean (log10) value for "ACGAUC" 0.555

Using the record for "CAGGUA" , state its measured FACS-Seq fitted mean (log10). 0.0884

Recall and state the measured FACS-Seq fitted mean (log10) for "AAUUGG" . 0.112

Report measured FACS-Seq fitted mean (log10); entry is "GUACGA" 0.269

Dear colleague, please send me the reported FACS-Seq fitted mean (log10) for "GUGGAC" when you can. 0.143

For "UACCGA" , write its FACS-Seq fitted mean (log10). 0.363

Return FACS-Seq fitted mean (log10) for the following variant: "GUCGUA" 0.666

Find the measured FACS-Seq fitted mean (log10) of "GAAAUA" and report it. 0.624

Specify reported FACS-Seq fitted mean (log10) for the variant shown: "GCGGAG" 0.2

Determine from records and report FACS-Seq fitted mean (log10) for "GCGAAG" 0.477

Please list FACS-Seq fitted mean (log10) recorded for the variant "AUAGUG" 0.15

Please give measured FACS-Seq fitted mean (log10) of the following entry: "UUAGGC" 0.366

Determine its reported FACS-Seq fitted mean (log10): "CAUUUG" 0.428

Tell me measured FACS-Seq fitted mean (log10) for "UCCAGA" please. -0.0235

Dear colleague, please send me the reported FACS-Seq fitted mean (log10) for "CAAUAG" when you can. 0.376

Quick one: give measured FACS-Seq fitted mean (log10) for "GAUAGA" 0.454

Fill in FACS-Seq fitted mean (log10) for record "AACUGG" 0.359

Provide FACS-Seq fitted mean (log10) value for the following variant: "GAUUCU" 0.0461

Please give measured FACS-Seq fitted mean (log10) of the following entry: "UCAAGA" 0.185

Return FACS-Seq fitted mean (log10) (reported value) for this variant: "CAGUCG" 0.492

Given "AAAUCG" , respond with its FACS-Seq fitted mean (log10). 0.416

Give the measured FACS-Seq fitted mean (log10) for "GUAAAU" 0.332

Identify FACS-Seq fitted mean (log10) associated with the variant "UUGGGG" 0.207

Look up and report measured FACS-Seq fitted mean (log10) for this entry: "UAAAGG" 0.0807

Return FACS-Seq fitted mean (log10) for the following variant: "AAGCAU" 0.218
